Entries and their melting point
Where a name gives a salt, the structure may show the parent alone.

- compound: "CCOC(=O)c1cn(Cc2c(F)cccc2F)c2nc(-c3ccc([N+](=O)[O-])cc3)c(C)n2c1=O"
  melting point: "219 to 221 °C"
- compound: "CCOC(=O)c1cnc2nc(-c3ccccc3)c(C)n2c1O"
  melting point: "220 to 225 °C"
- compound: "Cc1c(-c2ccccc2)nc2n(Cc3c(F)cccc3F)cc(C(=O)CC(C)C)c(=O)n12 (as salt: hydrochloride)"
  melting point: "158 to 166 °C"
- compound: "CC(=O)N(C(=O)OC(C)(C)C)c1ccc(-c2nc3n(Cc4c(F)cccc4F)c(C)c(Cc4ccccc4)c(=O)n3c2C)cc1"
  melting point: "176 to 177 °C"
- compound: "Cc1c(Cc2ccccc2)c(=O)n2c(CN(C)Cc3ccccc3)c(-c3ccc(NC(=O)OC(C)(C)C)cc3)nc2n1Cc1c(F)cccc1F"
  melting point: "179 to 184 °C"
- compound: "CCOC(=O)c1cn(Cc2c(F)cccc2F)c2nc(-c3ccc([N+](=O)[O-])cc3)c(CO)n2c1=O"
  melting point: "230 to 232 °C"
- compound: "CCOC(=O)c1cn(Cc2c(F)cccc2F)c2nc(-c3ccc(N)cc3)c(CN(C)Cc3ccccc3)n2c1=O"
  melting point: "161 to 166 °C"
- compound: "CCOC(=O)c1cn(Cc2c(F)cccc2F)c2nc(-c3ccc(NC(=O)C(C)C)cc3)c(CN(C)Cc3ccccc3)n2c1=O"
  melting point: "98 to 103 °C"
- compound: "CCOC(=O)c1cn(Cc2c(F)cccc2F)c2nc(-c3ccc([N+](=O)[O-])cc3)c(CBr)n2c1=O"
  melting point: "205 to 210 °C"
- compound: "CON(C)C(=O)c1cn(Cc2c(F)cccc2F)c2nc(-c3ccc(N)cc3)c(CN(C)Cc3ccccc3)n2c1=O"
  melting point: "89 to 91 °C"
- compound: "CCOC(=O)c1cn(Cc2c(F)cccc2F)c2nc(-c3ccc([N+](=O)[O-])cc3)c(CN(C)Cc3ccccc3)n2c1=O"
  melting point: "187 to 189 °C"
- compound: "CCNC(=O)Nc1ccc(-c2nc3n(Cc4c(F)cccc4F)cc(C(=O)OC(C)C)c(=O)n3c2CN(C)Cc2ccccc2)cc1"
  melting point: "198 to 200 °C"
- compound: "CN(Cc1ccccc1)Cc1c(-c2ccc(NC(=O)c3ccoc3)cc2)nc2n(Cc3c(F)cccc3F)cc(C(=O)c3ccccc3)c(=O)n12"
  melting point: "172 to 174 °C"
- compound: "CCNC(=O)Nc1ccc(-c2nc3n(Cc4c(F)cccc4F)cc(C(=O)OCC)c(=O)n3c2CN(C)Cc2ccccc2)cc1"
  melting point: "191 to 196 °C"
